- System: MS2 coat protein
- assayProcedure: apparent KD of MS2 coat protein, switch ON state; designed switch direction (-1 OFF switch, 1 ON switch): 1; higher = weaker reporter binding
- conditionDescription: FMN input: 0 or 200 uM; Eterna round: R93 (includes R88 designs)
Exercise: state measured apparent KD of MS2 coat protein for each of the sequences provided.
State the answer as a number, implicitly in µM.

Input line: Kindly state the measured apparent KD of MS2 coat protein obtained for CGGAAAGAGAGAGAGGAUAUCCAAAGGAAAACAUGAGGAUCACCCAUGUAGAAGGUAGGAAAUUGGGAGAAGGCUCAAGAGAGAG [salish99-ss2-132] with MS2 coat protein.
Output line: 0.0253

Input line: Give MS2 coat protein apparent KD of MS2 coat protein for AGGAAACAUGAGGAUCACCCAUGUAAAAAUAUGGAAGGAUAUGGAAACACGAAAGUGAAACCAGAAGGUCUGAAAA [77%, Mat - Mod of Eli, 20]
Output line: 0.0166

Input line: Form field - read-out: apparent KD of MS2 coat protein; system: MS2 coat protein; submitted item: AUAAAACAUGAGGAUCACCCAUGUCAGAAAUGGCAAGGAUAUAGAAAAUAAAAAUAAAAACUAGAAGGUGCAAAAU [Meechl SS1 R2 m1]
Output line: 0.0749

Input line: Write down the reported apparent KD of MS2 coat protein of AAAUAAAUGACUGAGGAUAUAUCGAUGAAAACAUGAGGAUCACCCAUGUGAUAAUAAAAAGGGUGGUAGAAGGUAGUCAACAAAC [Mod 12 of Pariah 4 by Hyphema in Round 1] , test system: MS2 coat protein.
Output line: 0.0555

Input line: Recall the recorded apparent KD of MS2 coat protein for AGAAAUAAAAGGCAGGAUAUCCAAAAGAAAACAUGAGGAUCACCCAUGUAAAAGAAAAUAAAAUGGGAGAAGGGCCAAAAUAAAG [Fisker 73] with MS2 coat protein and state it.
Output line: 0.0131

Input line: Give MS2 coat protein apparent KD of MS2 coat protein for AAGAAACAUGAGGAUCACCCAUGUAGAAACAUGGGAGGAUAUACGAAGACGAAAGUCAAAGUAGAAGGCCUAAAAA [Garnet 90]
Output line: 0.0788

====

Please go through the items and note down their apparent KD of MS2 coat protein.
- Test system: MS2 coat protein
- assayProcedure: apparent KD of MS2 coat protein; designed switch direction (-1 OFF switch, 1 ON switch): 1; higher = weaker reporter binding
- conditionDescription: input ligand: FMN 200 uM
Supply the numeric figure in nM, leaving out any unit text.

Input line: Quick one: apparent KD of MS2 coat protein for GUGAAGAAUUAAGGAUAUUGAAUACAUAUGUUUAACAUGAGGAUCACCCAUGUGGGUUGCGGUAUCGAGAAGGUAAAUUACUAG [salish99_SSNG2_r04_031] (Eterna round: R96, puzzle: Same State NG 2) ?
Output line: 95.5

Input line: What value of apparent KD of MS2 coat protein has been recorded for this entry: GAGUAGUACGGAGGAUAUGGGCAGAACAAGACACCAGAAGGCCGACAUGAGGAUGCUGGACAUGAGGAUCACCCAUGUACCUGA [Same State 1 S3] (Eterna round: R96, puzzle: Same State NG 1)
Output line: 22.8

====

- Test system: MS2 coat protein
- assayProcedure: apparent KD of MS2 coat protein; designed switch direction (-1 OFF switch, 1 ON switch): 1; higher = weaker reporter binding
- conditionDescription: input ligand: none
measure: apparent KD of MS2 coat protein (nM)
Write the value in nM as a bare number.

Input line: Quick check: apparent KD of MS2 coat protein of UGUACCUUCACAGGAUAUCAUGCGAAAAUUGCGUGAGAAGGGUGAAUACUGUCUUACUAAGAGCACAUGAGGAUCACCCAUGUA [SameState NG1 #58] (Eterna round: R96, puzzle: Same State NG 1) ?
Output line: 296

Input line: # get_value(readout='apparent KD of MS2 coat protein', item= AGCUAUUACGAAGGAUAUUGUGACAUGAGGAUCACCCAUGUUUUCAUGAUUUAUUGUGAUCACGUCGAGAAGGUUGUACUAACA [SameState NG2 #29] (Eterna round: R96, puzzle: Same State NG 2) )
Output line: 51.8

Input line: What value of measured apparent KD of MS2 coat protein is listed for GGACGUCAACUCACUAAUUAACAUGAGGAUCACCCAUGUUCACAGGAUAUGAGUCCGAUUAGGACUCAGAAGGGUGAGACGUCC [Fiskers NG3ss - 48] (Eterna round: R96, puzzle: Same State NG 3) ?
Output line: 21.1

Input line: Which apparent KD of MS2 coat protein value is on record for UCUUGGUUUUUGCUCGUUUUUUGUGUUGAACAUGAGGAUCACCCAUGUAUUGUACGGUCCAGUUUGAUAAUGGUCCG [JMF 34] (Eterna round: R96, puzzle: Sensor for hsa-mir-208a) ?
Output line: 40.2

Input line: Any idea what its apparent KD of MS2 coat protein is? The sequence is GUUACAUGAGGAUCACCCAUGUAUGUGUGGGAGUAAGUGUCUUAGGAUAUCUAUGAGUUAAUUUAAGAGAAGGAAGAUUGUUGU [JMF's solution 74] (Eterna round: R96, puzzle: Same State NG 3)
Output line: 77.5

Input line: Quick check: apparent KD of MS2 coat protein of CCGUAGAUGGAAGGAUAUGGAGCCUUAUUGGCUCCAGAAGGUUCAAUAACAUGAGGAUCACCCAUGUCGGCGGUCAAUAGACCG [Eli NG1ss - 80] (Eterna round: R96, puzzle: Same State NG 1) ?
Output line: 44.9

Input line: Requested field: apparent KD of MS2 coat protein. Item: UUCCCAUCGGGAGGAUAUGGAACCUUAUUGGUUCUAGAAGGUCCAACAUGAGGAUCACCCAUGUGGGAGUGGUCUAAUGACCUC [SS NG10LRO03] (Eterna round: R96, puzzle: Same State NG 1)
Output line: 333

Input line: Could you tell me which apparent KD of MS2 coat protein is on file for GGAGCUGUUAUAGGAUAUCCCGCGCAUUACGCGGGAGAAGGGUGACGCUCACAUGAGGAUCACCCAUGUGGCGUUCCAAAAUAA [Rate] (Eterna round: R96, puzzle: Same State NG 1) ?
Output line: 12.4

Input line: Endpoint output: apparent KD of MS2 coat protein of GCCGUAUAAACAUGAGGAUCACCCAUGUGCGCGAGAGCGAAUGAGGAUAUCGAUGGGUUUCCCGUCGAGAAGGCGUGGGUCGGC [JL SSNG3 3.96] (Eterna round: R96, puzzle: Same State NG 3) . Value?
Output line: 96.3

Input line: Can you share its apparent KD of MS2 coat protein? I mean this sequence: ACAUGAGACUUAGGAUAUCUUGUACCUACAUGUGACAUGAGGAUCACCCAUGUGGUAAGUAUGAGGGAGAAGGAAGAGAUAUGU [Equivalence 38 - Jieux - Same State NG 2] (Eterna round: R96, puzzle: Same State NG 2)
Output line: 33.9

Input line: What apparent KD of MS2 coat protein value was documented for this sequence, UUGCUCGUGUGAGGAUAUGCAGCCGUUUCGGCUGCAGAAGGUACUAUAAUACAUGAGGAUCACCCAUGUCUCUAUUGUUUAGUG [salish99_SSNG1_r04_927] (Eterna round: R96, puzzle: Same State NG 1) ?
Output line: 26.7

Input line: Can you share its apparent KD of MS2 coat protein? I mean this sequence: CGAAGUCGUAGAGGAUAUGGGUGGCCGGAGUCAACAUGAGGAUCACCCAUGUGCUAAUAUGAGAUCCAGAAGGCUGCGAACGGG [Eternabot solution 16] (Eterna round: R96, puzzle: Same State NG 2)
Output line: 430

Input line: What value of apparent KD of MS2 coat protein has been reported for the following sequence? UUGAUGAACUGAGGAUAUCGAGUCGUCUGUUUUUACAUGAGGAUCACCCAUGUGGGUUGUGGUAUCGAGAAGGCAGAUUACUUA [JR_SSNG2_Sub031] (Eterna round: R96, puzzle: Same State NG 2)
Output line: 2150

Input line: Query (sequence): UGGUACAUGGGAGGAUAUCUCAUGGUGACAUGAGGAUCACCCAUGUAGUUGGAGCCGAAAGGCAGAGAGAAGGCCCAUGUACCU [JL SSNG1 3.77] (Eterna round: R96, puzzle: Same State NG 2) ; field requested: apparent KD of MS2 coat protein
Output line: 96.3

Input line: # query: apparent KD of MS2 coat protein of entry ACUUAGUACAAUUUAGAUCUACAUGAGGAUCACCCAUGUACUGAGGAUAUCAGCUCGUUUAGAGCUGAGAAGGCAGAAGUACUU [SSNG3/8-A3] (Eterna round: R96, puzzle: Same State NG 3)
Output line: 207

Input line: Query (sequence): CCAAUGUACAAUUUAGAUCUACAUGAGGAUCACCCAUGUACAGAGGAUAUCAGCUCGUGUAGAGCUGAGAAGGCUGAAUUAAUU [SSNG3/3-A4] (Eterna round: R96, puzzle: Same State NG 3) ; field requested: apparent KD of MS2 coat protein
Output line: 179

Input line: Need apparent KD of MS2 coat protein, item UUGCAGUGCGGGUAGGAUAUGUAGGGUGGUACAUGAGGAUCACCCAUGUAUCCACCCUUCGACCGGCAGAAGGGCCUGUCACCGC [Lexeis] (Eterna round: R96, puzzle: Same State 2)
Output line: 17.4

Input line: I would be grateful if you could share the reported apparent KD of MS2 coat protein for AAAAAAAAGUCAGGAUAUGAAUGGAAAGUACAUGAGGAUCACCCAUGUUAUGGAAAAAAAAAACGUUAGAAGGGAUAAAAAAAA [AK SSNG2-V2-1] (Eterna round: R96, puzzle: Same State NG 2) .
Output line: 62.3

Hey, just so you know, these numbers are from the supplement of paper PMC9170038.
